- subject.of.test: tau construct K19 (Homo sapiens, UniProt P10636)
- Sequence (P10636 with tags, fused parts or gaps isoform P10636-2 limits assumed): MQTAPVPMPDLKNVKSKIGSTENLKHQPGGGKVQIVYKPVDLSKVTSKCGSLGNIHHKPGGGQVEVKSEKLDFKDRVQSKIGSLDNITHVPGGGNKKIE
- method.summary: Thioflavine S (ThS) assay for aggregation of tau
- Type: biochemical
- condition.label: 10 μM tau construct K19, 2.5 μM heparin, ThS fluorescence; read-out: DC50
Criterion: DC50 strictly less than 20 µM. Met: fulfilled. Not met: not fulfilled.

{"columns": ["compound", "cat"],
 "data": [
  ["O=C(NNc1nc(-c2ccccc2)cs1)c1ccc2ccccc2c1", "fulfilled"],
  ["O=C(NNc1nc(-c2ccc([N+](=O)[O-])cc2)cs1)c1ccc(F)cc1", "fulfilled"],
  ["O=C(CCc1ccccc1)NNc1nc(-c2ccc(Br)cc2)cs1", "not fulfilled"],
  ["COc1ccc(C(=O)NNc2nc(C3C4CC5CC(C4)CC3C5)cs2)cc1 (stereo not shown)", "not fulfilled"],
  ["Cc1nc(NNC(=O)c2ccc(F)cc2)sc1-c1ccc(Br)cc1", "fulfilled"],
  ["O=C(NNc1nc(-c2ccc(N3CCCC3)cc2)cs1)c1cccnc1", "fulfilled"]
]}

# strict comparison: is reported DC50 < 20 µM? input = O=C(NNc1nc(-c2ccccc2)cs1)c1ccc(-c2ccccc2)cc1
not fulfilled

# strict comparison: is reported DC50 < 20 µM? input = O=C(NNc1nc(-c2ccc(Br)cc2)cs1)c1ccc2[nH]cnc2c1
not fulfilled

# strict comparison: is reported DC50 < 20 µM? input = O=C(NNc1nc(-c2ccc(Br)cc2)cs1)c1ccc2c(c1)OCO2
not fulfilled

# strict comparison: is reported DC50 < 20 µM? input = Cc1sc(NNC(=O)c2ccc(Cl)cc2)nc1-c1cccc([N+](=O)[O-])c1
fulfilled

# strict comparison: is reported DC50 < 20 µM? input = O=C(NNc1nc(-c2ccc(Cl)cc2)cs1)c1ccccc1F
not fulfilled

# strict comparison: is reported DC50 < 20 µM? input = O=C(NNc1nc(-c2cc3ccccc3oc2=O)cs1)c1ccc2c(c1)OCO2
not fulfilled

# strict comparison: is reported DC50 < 20 µM? input = COc1cccc(-c2csc(NNC(=O)c3ccncc3)n2)c1
not fulfilled

# strict comparison: is reported DC50 < 20 µM? input = O=C(NNc1nc(-c2ccc([N+](=O)[O-])cc2)cs1)c1ccc2c(c1)OCO2
fulfilled

# strict comparison: is reported DC50 < 20 µM? input = CN(Nc1nc(-c2ccc([N+](=O)[O-])cc2)cs1)C(=O)c1ccc(-c2ccccc2)cc1
not fulfilled

# strict comparison: is reported DC50 < 20 µM? input = O=C(NNc1nc(-c2cc3ccccc3oc2=O)cs1)c1ccc(F)cc1
not fulfilled

# strict comparison: is reported DC50 < 20 µM? input = COc1ccc(-c2csc(NNC(=O)N3CCCCC3)n2)cc1
not fulfilled

# strict comparison: is reported DC50 < 20 µM? input = O=C(NNc1nc(-c2ccccc2)cs1)c1ccc(F)cc1 [Comp. 34]
not fulfilled
